Parameter: Fold IC50 (pH 6.0 v pH 7.4). Scope: all listed entries.
- TESTED_SYSTEM: T1, recombinant biotinylated human PAR2 extracellular domain (residues 1-75), N-terminal AviTag, C-terminal Flag … (human, UniProt P55085 26-75, biotin on the AviTag (enzymatic biotinylation))
- T1 construct: also called Bio-human-PAR2 ECD; human PAR2 ECD; not shown: N-terminal AviTag (Avidity LLC); C-terminal Flag and poly Histidine tags
- T1 sequence (P55085 26-75): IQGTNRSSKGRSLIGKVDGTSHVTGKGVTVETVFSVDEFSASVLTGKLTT
- PROTOCOL_NOTES: HTRF competition with Par0067 IgG, scFv
# value in fold; strip the unit string

Answered cases to consult:
BINDER | RECORDED_METRIC | EXPERIMENTAL_RESULT
PaB670092 scFv (scFv, V domains shown, purified scFv; also called ZZ1ODR-G11) VH: EVQLLESGGGLVQPGGSLRLSCAASGFTFSSYAMNWVRQAPGKGLEWVSTISYHGSHISYHDSHHGRFTISRDNSKNTLYLQMNSLRAEDTAVYYCARINNDPMDVWGQGTLVTVSS VL: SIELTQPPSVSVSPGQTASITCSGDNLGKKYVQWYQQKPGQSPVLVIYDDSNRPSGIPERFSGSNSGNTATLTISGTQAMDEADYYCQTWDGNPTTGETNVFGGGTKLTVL | Fold IC50 (pH 6.0 v pH 7.4) | 4.7
PaB670066 scFv (scFv, V domains shown, purified scFv; also called ZZ1KX6-D05) VH: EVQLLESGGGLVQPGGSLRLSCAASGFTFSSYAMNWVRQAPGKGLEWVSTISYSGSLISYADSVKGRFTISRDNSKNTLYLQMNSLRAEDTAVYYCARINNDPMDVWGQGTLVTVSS VL: SIELTQPPSVSVSPGQTASITCSGDNLGKKYVQWYQQKPGQSPVLVIYDDSNRPSGIPERFSGSNSGNTATLTISGTQAMDEADYYCHHWHGNHHTGETNHFGGGTKLTVL | Fold IC50 (pH 6.0 v pH 7.4) | 9.3

Query block: Which measured Fold IC50 (pH 6.0 v pH 7.4) value corresponds to PaB670070 scFv (scFv, V domains shown, purified scFv; also called ZZ1KXE-D06) VH: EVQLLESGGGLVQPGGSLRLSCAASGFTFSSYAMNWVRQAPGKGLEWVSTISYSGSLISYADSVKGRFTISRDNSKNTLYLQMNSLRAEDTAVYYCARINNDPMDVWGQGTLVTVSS VL: SIELTQPPSVSVSPGQTASITCSGDNLGKKYVQWYQQKPGQSPVLVIYDDSNRPSGIPERFSGSNSGNTATLTISGTQAMDEADYYCQTWDHNHHTGHTNVFGGGTKLTVL ?
Result block: 4.5

All figures here come from patent US20180305450A1.
